Please respond with reported Population Hoechst High Intensity Objects (%) for every item in the list.
Tested on: Fibroblast
assay-explanation: Multiplex assay against human fibroblast
Assay type: toxicity, cell-based
condition-description: 24 h, 1 µM, compound concentration 1 uM, number of replicates 2
API: value field is a number in %; no unit string.

Qu. Using Fibroblast as the test system, report measured Population Hoechst High Intensity Objects (%) of O=C1CCCN1CCNc1nc(Nc2ccc(Cl)c(Cl)c2)ncc1C(F)(F)F .
Ans. 0

Qu. Using Fibroblast as the test system, report measured Population Hoechst High Intensity Objects (%) of CN(C)C/C=C/C(=O)Nc1cccc(S(=O)(=O)N2CCC(NC(=O)c3n[nH]cc3NC(=O)c3c(Cl)cc(Cl)cc3Cl)CC2)c1 .
Ans. 0

Qu. Using Fibroblast as the test system, report measured Population Hoechst High Intensity Objects (%) of CN1CCN(C(=O)Cc2ccc(N/C(=C3\C(=O)Nc4cc(Cl)ccc43)c3ccccc3)cc2)CC1 .
Ans. 0

Qu. Using Fibroblast as the test system, report measured Population Hoechst High Intensity Objects (%) of Fc1cccc(-n2cnc3c(NCc4nc5ccc(F)c(F)c5[nH]4)nc(N4CCOCC4)nc32)c1 .
Ans. 0

Qu. Using Fibroblast as the test system, report measured Population Hoechst High Intensity Objects (%) of CS(=O)(=O)c1ccc(C(=O)Nc2ccc(F)c(COc3ccc(Br)cc3CN3CC[C@H](O)C3)c2)c(Cl)c1.O=CO .
Ans. 0

Qu. Using Fibroblast as the test system, report measured Population Hoechst High Intensity Objects (%) of Cn1cc(-c2ccc(N(C(=O)NCc3ccccc3)[C@H]3CC[C@H](Nc4ccc(C#N)cn4)CC3)cc2)ccc1=O .
Ans. 0

Qu. Using Fibroblast as the test system, report measured Population Hoechst High Intensity Objects (%) of O=S(=O)(c1ccccc1)N(CC(F)(F)F)c1ccc(C(O)(C(F)(F)F)C(F)(F)F)cc1 .
Ans. 0

Qu. Using Fibroblast as the test system, report measured Population Hoechst High Intensity Objects (%) of Cc1cc(-c2cnc(N)c3c(-c4ccc5scnc5c4)csc23)n(C)n1 .
Ans. 0

Qu. Using Fibroblast as the test system, report measured Population Hoechst High Intensity Objects (%) of COC(=O)c1ccc2c(c1)NC(=O)/C2=C(\Nc1ccc(-c2nccn2C)cc1)c1ccccc1 .
Ans. 0

Qu. Using Fibroblast as the test system, report measured Population Hoechst High Intensity Objects (%) of CN(C)CCCN1c2ccccc2Sc2ccc(Cl)cc21.Cl [CHLORPROMAZINE HYDROCHLORIDE] .
Ans. 0

Qu. Using Fibroblast as the test system, report measured Population Hoechst High Intensity Objects (%) of CS(=O)(=O)c1ccc(C(=O)Nc2cccc(COc3ccc(Br)cc3CNCCO)c2)c(Cl)c1.O=CO .
Ans. 0

Qu. Using Fibroblast as the test system, report measured Population Hoechst High Intensity Objects (%) of O=C(Nc1ccc(Cl)c(-c2ccccn2)c1)c1cccc(COc2ccc(Br)cc2CNCCO)c1.O=CO .
Ans. 0

Qu. Using Fibroblast as the test system, report measured Population Hoechst High Intensity Objects (%) of CCC(=O)O[C@@H](OP(=O)(CCCCc1ccccc1)CC(=O)N1C[C@H](C2CCCCC2)C[C@H]1C(=O)[O-])C(C)C.[Na+] (stereo partly specified) .
Ans. 0

Qu. Using Fibroblast as the test system, report measured Population Hoechst High Intensity Objects (%) of CN(C)C/C=C/C(=O)Nc1cc2c(Nc3ccc(F)c(Cl)c3)ncnc2cc1OC[C@@H]1CCCO1 .
Ans. 0

Qu. Using Fibroblast as the test system, report measured Population Hoechst High Intensity Objects (%) of CC(=O)N(CCN(C)C)c1ccc(N/C(=C2\C(=O)Nc3cc(Cl)ccc32)c2ccccc2)cn1 .
Ans. 0

Qu. Using Fibroblast as the test system, report measured Population Hoechst High Intensity Objects (%) of COc1cc(N2CCN(C)CC2)ccc1Nc1ncc2c(n1)N(C)c1ccccc1C(=O)N2CC(F)(F)F .
Ans. 0

Qu. Using Fibroblast as the test system, report measured Population Hoechst High Intensity Objects (%) of Cn1c(Nc2c(Cl)cccc2Cl)nc2ccc3nc[nH]c(=O)c3c21 .
Ans. 0

Qu. Using Fibroblast as the test system, report measured Population Hoechst High Intensity Objects (%) of COc1cc2nc(-c3cc(F)ccc3O)nc(N[C@@H]3CNC[C@H]3C(C)(C)O)c2cc1OC.Cl.Cl .
Ans. 0

Qu. Using Fibroblast as the test system, report measured Population Hoechst High Intensity Objects (%) of COc1c(OCCCN2CCOCC2)ccc2c1N=C(NC(=O)c1cnc(N)nc1)N1CCN=C21 .
Ans. 0

Qu. Using Fibroblast as the test system, report measured Population Hoechst High Intensity Objects (%) of Br.Oc1cc2c(cc1O)C(c1ccccc1)CNCC2 (stereo unspecified) .
Ans. 0

Qu. Using Fibroblast as the test system, report measured Population Hoechst High Intensity Objects (%) of CN(C)C/C=C/C(=O)Nc1ccc(C(=O)N2CCCC(Nc3ncc(Cl)c(-c4c[nH]c5ccccc45)n3)C2)cc1 (stereo unspecified) .
Ans. 0
